# test_protocol: Inhibition of clostridium perfringens neuraminidase using fluorescent substrate preincubated for 2 mins followed by substrate addition and measured after 1 hr by fluorescence based microplate reader analysis
measured_metric: pIC50
Reminder that pIC50 means the negative base-10 logarithm of the concentration expressed in mol/L.

See these solved cases before continuing.
>  <compound>
O=C(NCCCN1CCOCC1)C(=O)N/N=C/c1cccc(COc2cccc(Cl)c2)c1

>  <pIC50>
4.66

$$$$
>  <compound>
COc1ccccc1OCc1cccc(/C=N/NC(=O)C(=O)NCCCN2CCOCC2)c1

>  <pIC50>
4.32

$$$$
>  <compound>
O=C(NCCCN1CCOCC1)C(=O)N/N=C/c1cccc(COc2ccc(F)cc2)c1

>  <pIC50>
5.28

$$$$
>  <compound>
O=C(NCCCN1CCOCC1)C(=O)N/N=C/c1cccc(COc2ccccc2F)c1

>  <pIC50>
4.67

$$$$
>  <compound>
COc1ccc(Br)cc1OCc1cccc(/C=N/NC(=O)C(=O)NCCCN2CCOCC2)c1

>  <pIC50>
5.14

$$$$
>  <compound>
O=C(NCCCN1CCOCC1)C(=O)N/N=C/c1cccc(COc2ccc(Cl)cc2)c1

>  <pIC50>
5.21

$$$$
>  <compound>
COc1ccc(OCc2cccc(/C=N/NC(=O)C(=O)NCCCN3CCOCC3)c2)cc1

>  <pIC50>
6.22

$$$$
>  <compound>
O=C(NCCCN1CCOCC1)C(=O)N/N=C/c1cccc(COc2ccccc2Cl)c1

>  <pIC50>
4.69

$$$$

Next:
Please report the recorded pIC50 for CCC(CC)O[C@@H]1C=C(C(=O)O)C[C@H](N)[C@H]1NC(C)=O [OSELTAMIVIR CARBOXYLATE] .
4.77

###

Entries and their IC50 values follow.
# test_protocol: Inhibition of clostridium perfringens neuraminidase using fluorescent substrate preincubated for 2 mins followed by substrate addition and measured after 1 hr by fluorescence based microplate reader analysis

See these solved cases before continuing.
>  <query_smiles>
O=C(NCCCN1CCOCC1)C(=O)N/N=C/c1cccc(COc2cc(F)ccc2[N+](=O)[O-])c1

>  <IC50>
17.8 µM

$$$$
>  <query_smiles>
COc1cc([N+](=O)[O-])ccc1OCc1cccc(/C=N/NC(=O)C(=O)NCCCN2CCOCC2)c1

>  <IC50>
28.4 µM

$$$$
>  <query_smiles>
CC(=O)Nc1ccc(OCc2cccc(/C=N/NC(=O)C(=O)NCCCN3CCOCC3)c2)cc1

>  <IC50>
73.4 µM

$$$$

Please report the recorded IC50 for O=C(NCCCN1CCOCC1)C(=O)N/N=C/c1cccc(COc2ccccc2[N+](=O)[O-])c1 .
86 µM

Please report the recorded IC50 for COc1cccc(OCc2cccc(/C=N/NC(=O)C(=O)NCCCN3CCOCC3)c2)c1 .
13.6 µM

Please report the recorded IC50 for O=C(NCCCN1CCOCC1)C(=O)N/N=C/c1cccc(COc2ccc([N+](=O)[O-])cc2)c1 .
27.8 µM
